Reference source for all entries: PubChem BioAssay (NCI)

What TGI was measured for each of the following?
tested on: KM12 colon; assay: NCI tumour cell line growth inhibition, 48 h

-- ask Please give the documented TGI of "COc1ccc(OC)c(NCC(=O)Nn2cnc3ccc(S(=O)(=O)Nc4cc(OC)ccc4OC)cc3c2=O)c1"
-- reply > 100 µM

-- ask Please give the documented TGI of "CCCCCCCCCCCCCCCCCc1nccn1CCOCCO"
-- reply 11.4 µg/mL

-- ask Please give the documented TGI of "COc1ccc2c3c(Nc4cccc(/C(C)=N\O)c4)[nH]c4ccccc4c-3c(N=O)c2c1"
-- reply > 100 µM

-- ask Please give the documented TGI of COC1C(O)CC(OC2CC(OC3CC(O[C@@H]4C(=O)c5c(cc6cc(OC7CC(OC8CC(O)C(O)C(C)O8)C(O)C(C)O7)c(C)c(O)c6c5O)CC4[C@H](OC)C(=O)O)OC(C)C3O)OC(C)C2O)OC1C (some centres undefined)
-- reply > 33.3 µM

###

test system: OVCAR-8 ovarian; assay: NCI tumour cell line growth inhibition, 48 h
assay-readout: TGI

-- ask Please give the documented TGI of "O=C(Nc1cccc2c1C(=O)c1c(NC(=O)c3ccccc3)ccc(Nc3cccc4c3C(=O)c3ccccc3C4=O)c1C2=O)c1ccccc1"
-- reply > 100 µM

-- ask Please give the documented TGI of "CC(=O)Oc1cc(S(=O)(=O)Nc2n[nH]c(Nc3ccc(C)cc3)n2)c(S)cc1Cl"
-- reply > 100 µM

-- ask Please give the documented TGI of "O=c1c2ccc(S(=O)(=O)c3ccc4c(=O)n5c6ccccc6nc5c5cccc3c45)c3cccc(c32)c2nc3ccccc3n12"
-- reply > 100 µM

-- ask Please give the documented TGI of "CCOP(=O)(OCC)/C(C#N)=C/c1cccn1C(C)C"
-- reply > 100 µM

-- ask Please give the documented TGI of "Cc1n[nH]c(=S)n(C)c1=S"
-- reply > 100 µM

-- ask Please give the documented TGI of C[C@@]1(C(=O)O)CCC[C@]2(C)C1CC[C@@]13C[C@@](O)(CC[C@]12O)[C@@]1(CO1)C3 (stereo not given in full)
-- reply > 100 µM

-- ask Please give the documented TGI of "O=C(O)/C(Cl)=C(\Cl)C(=O)c1ccccc1"
-- reply > 100 µM

-- ask Please give the documented TGI of CCN(CC)CCCC(C)Nc1ccnc2cc(Cl)ccc12 (stereo not given)
-- reply > 100 µM

-- ask Please give the documented TGI of O=C1C(=C(C(F)(F)Cl)C(F)(F)Cl)C2CCC1C2 (stereo not given)
-- reply 4.24 µM

-- ask Please give the documented TGI of COc1cc(C2CC(c3cccc(Nc4ccnc5cc(Cl)ccc45)c3)=NN2c2ccc(Cl)cc2)cc(OC)c1OC (stereo not given)
-- reply > 100 µM

-- ask Please give the documented TGI of "S=C(N/N=C(\c1ccccc1)c1ccccn1)NC1CCCCC1"
-- reply 3.44 µM

-- ask Please give the documented TGI of "CCOC(=O)c1nc2ccc(C(F)(F)F)cc2nc1Nc1cc(OC)c(OC)c(OC)c1"
-- reply > 100 µM

-- ask Please give the documented TGI of "CCCCCCCCCCCCCCCC1=NCCN1"
-- reply 6.92 µM

-- ask Please give the documented TGI of CCc1c2c(cc3c1CC1(C3)Cc3cc4c(c(C(=O)OC)c3C1)CCCC4)CCCC2 (stereo not given)
-- reply > 100 µM

-- ask Please give the documented TGI of "COc1ccc(/C=C/C(=O)/C=C/c2ccc(OC)cc2OC)c(OC)c1"
-- reply 41.1 µM
